Data credit: patent US9284303B2

- SYSTEM NAME: human CB2 (hCB2) receptor (Homo sapiens)
- Construct: expressed in transfected cells; host or cells: CHO-K1
- METHOD NOTES: Inhibition of forskolin-activated cAMP production upon activation of hCB2 (HTRF), CHO-K1 cells
- Format: cell-based
- SETUP CONDITIONS: Table C-1; selectivity hCB2 over hCB1
- Procedure: Functional activity of the test compounds was assessed by measuring their potency to inhibit forskolin-activated cAMP production upon activation of the human CB1 (hCB1) or human CB2 (hCB2) receptor through homogenous time resolved fluorescence (HTRF) assays. […]
Decision: ratio CB2 agonism over CB1 agonism compared against 600; not below it gives T, below it gives F.

[[record]]
smiles_input = "CC(=O)NCCNc1cc(S(=O)(=O)c2ccc3c(c2)nc(C(C)(C)C)n3CC2CCOCC2)ccn1"
class_assignment = "T"

[[record]]
smiles_input = "CC(C)(C)c1nc2cc(S(=O)(=O)c3ccc(C(N)=O)o3)ccc2n1CC1CCOCC1"
class_assignment = "F"

[[record]]
smiles_input = "CC(C)(C)c1nc2cc(S(=O)(=O)c3ccc(S(=O)(=O)N4CCOCC4)s3)ccc2n1CC1CCOCC1"
class_assignment = "T"

[[record]]
smiles_input = "CC(C)(C)c1nc2cc(S(=O)(=O)c3cncc(C#N)c3)ccc2n1CC1CCOCC1"
class_assignment = "T"

[[record]]
smiles_input = "CC(C)(C)c1nc2cc(S(=O)(=O)c3coc(C(F)(F)F)c3)ccc2n1CC1CCOCC1"
class_assignment = "F"

[[record]]
smiles_input = "CCNS(=O)(=O)c1ccc(S(=O)(=O)c2ccc3c(c2)nc(C(C)(C)C)n3CC2CCOCC2)s1"
class_assignment = "T"

[[record]]
smiles_input = "CC(C)(C)c1nc2cc(S(=O)(=O)c3ccc(S(C)(=O)=O)nc3)ccc2n1CC1CCOCC1"
class_assignment = "T"


---

- SYSTEM NAME: human CB2 (hCB2) receptor (Homo sapiens, UniProt P34972)
- Construct: expressed in transfected cells; host or cells: CHO-K1
- Sequence (P34972 whole entry): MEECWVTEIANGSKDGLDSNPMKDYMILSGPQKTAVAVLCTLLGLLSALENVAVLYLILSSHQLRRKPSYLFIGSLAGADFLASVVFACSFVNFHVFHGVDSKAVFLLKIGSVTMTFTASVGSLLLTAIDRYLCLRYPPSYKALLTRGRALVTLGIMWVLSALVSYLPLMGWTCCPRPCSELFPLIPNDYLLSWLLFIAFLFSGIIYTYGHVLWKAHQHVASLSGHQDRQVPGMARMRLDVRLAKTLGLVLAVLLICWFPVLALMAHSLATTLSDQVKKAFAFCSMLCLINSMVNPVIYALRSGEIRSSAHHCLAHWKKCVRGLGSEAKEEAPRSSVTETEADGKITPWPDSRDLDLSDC
- METHOD NOTES: Inhibition of forskolin-activated cAMP production upon activation of hCB2 (HTRF), CHO-K1 cells
- Assay type: cell-based
- SETUP CONDITIONS: Table C-3; comparison of art compounds A to E with compounds of the invention
Listed compounds paired with reported ratio CB2 over CB1 agonism
MEASURED PARAMETER: ratio CB2 over CB1 agonism

[[record]]
compound = "CC(=O)c1ccc(S(=O)(=O)c2ccc3c(c2)nc(C(C)(C)C)n3CC2CCOCC2)nc1 [Co. No. 4]"
observed_measurement = 1679

[[record]]
compound = "CC(C)(C)c1nc2cc(S(=O)(=O)c3cccnc3)ccc2n1CC1CCOCC1 [Co. No. B, reference compound]"
observed_measurement = 30

[[record]]
compound = "CC(C)(C)c1nc2cc(S(=O)(=O)c3ccc(S(C)(=O)=O)o3)ccc2n1CC1CCOCC1 [Co. No. 20]"
observed_measurement = 346

[[record]]
compound = "Cn1cc(S(=O)(=O)c2ccc3c(c2)nc(C(C)(C)C)n3CC2CCOCC2)ccc1=O [Co. No. 28]"
observed_measurement = 3467

[[record]]
compound = "CC(=O)Nc1cc(S(=O)(=O)c2ccc3c(c2)nc(C(C)(C)C)n3CC2CCOCC2)ccn1 [Co. No. 22]"
observed_measurement = 1758

[[record]]
compound = "CC(C)(C)c1nc2cc(S(=O)(=O)c3ccc(C(N)=O)o3)ccc2n1CC1CCOCC1 [Co. No. 12]"
observed_measurement = 302

[[record]]
compound = "CC(C)(C)c1nc2cc(S(=O)(=O)c3ccnc(N)c3)ccc2n1CC1CCOCC1 [Co. No. 19]"
observed_measurement = 638

[[record]]
compound = "CC(C)(C)c1nc2cc(S(=O)(=O)c3ccncc3)ccc2n1CC1CCOCC1 [Co. No. A, reference compound]"
observed_measurement = 215


---

- SYSTEM NAME: human CB2 (hCB2) receptor (Homo sapiens, UniProt P34972)
- Construct: expressed in transfected cells; host or cells: CHO-K1
- METHOD NOTES: Inhibition of forskolin-activated cAMP production upon activation of hCB2 (HTRF), CHO-K1 cells
- Format: cell-based
- SETUP CONDITIONS: hCB2-CHO-K1 cells, forskolin-activated cAMP, pEC50=-log(EC50); read-out: CB2 pEC50 (converted)
- Experimental: Functional activity of the test compounds was assessed by measuring their potency to inhibit forskolin-activated cAMP production upon activation of the human CB1 (hCB1) or human CB2 (hCB2) receptor through homogenous time resolved fluorescence (HTRF) assays. […]
MEASURED PARAMETER: EC50

[[record]]
compound = "CC(C)(C)c1nc2cc(S(=O)(=O)c3ccc(S(C)(=O)=O)cn3)ccc2n1CC1CCOCC1"
system_name = "human CB2 (hCB2) receptor (Homo sapiens, UniProt P34972)"
measured_parameter = "EC50"
observed_measurement = "4.27 nM"

[[record]]
compound = "CC(C)(C)c1nc2cc(S(=O)(=O)c3ccn(C(F)F)c(=O)c3)ccc2n1CC1CCOCC1"
system_name = "human CB2 (hCB2) receptor (Homo sapiens, UniProt P34972)"
measured_parameter = "EC50"
observed_measurement = "2 nM"

[[record]]
compound = "CC(C)(C)c1nc2cc(S(=O)(=O)c3cc(Cl)nc(Cl)c3)ccc2n1CC1CCOCC1"
system_name = "human CB2 (hCB2) receptor (Homo sapiens, UniProt P34972)"
measured_parameter = "EC50"
observed_measurement = "0.741 nM"

[[record]]
compound = "CC(C)(C)c1nc2cc(S(=O)(=O)c3ccc(C(=O)O)cn3)ccc2n1CC1CCCCC1"
system_name = "human CB2 (hCB2) receptor (Homo sapiens, UniProt P34972)"
measured_parameter = "EC50"
observed_measurement = "1.05 nM"

[[record]]
compound = "CC(C)(C)c1nc2cc(S(=O)(=O)c3ccnc(/C=C/Cl)c3)ccc2n1CC1CCOCC1"
system_name = "human CB2 (hCB2) receptor (Homo sapiens, UniProt P34972)"
measured_parameter = "EC50"
observed_measurement = "2.51 nM"

[[record]]
compound = "Cc1cc(S(=O)(=O)c2ccc3c(c2)nc(CC(C)(C)C)n3CC2CCOCC2)cc[n+]1[O-]"
system_name = "human CB2 (hCB2) receptor (Homo sapiens, UniProt P34972)"
measured_parameter = "EC50"
observed_measurement = "5.01 nM"

[[record]]
compound = "CC(C)(C)c1nc2cc(S(=O)(=O)c3ccc(C(=O)N4CCOCC4)s3)ccc2n1CC1CCOCC1"
system_name = "human CB2 (hCB2) receptor (Homo sapiens, UniProt P34972)"
measured_parameter = "EC50"
observed_measurement = "2.95 nM"

[[record]]
compound = "Cn1ccc(S(=O)(=O)c2ccc3c(c2)nc(C(C)(C)C)n3CC2CCOCC2)cc1=O"
system_name = "human CB2 (hCB2) receptor (Homo sapiens, UniProt P34972)"
measured_parameter = "EC50"
observed_measurement = "1.74 nM"

[[record]]
compound = "CC(C)(C)c1nc2cc(S(=O)(=O)c3ccc(O)nc3)ccc2n1CC1CCOCC1"
system_name = "human CB2 (hCB2) receptor (Homo sapiens, UniProt P34972)"
measured_parameter = "EC50"
observed_measurement = "5.01 nM"

[[record]]
compound = "CC(C)(C)c1nc2cc(S(=O)(=O)c3ncccc3C#N)ccc2n1CC1CCOCC1"
system_name = "human CB2 (hCB2) receptor (Homo sapiens, UniProt P34972)"
measured_parameter = "EC50"
observed_measurement = "0.741 nM"

[[record]]
compound = "CC(=O)c1ccc(S(=O)(=O)c2ccc3c(c2)nc(C(C)(C)C)n3CC2CCOCC2)cn1"
system_name = "human CB2 (hCB2) receptor (Homo sapiens, UniProt P34972)"
measured_parameter = "EC50"
observed_measurement = "0.692 nM"

[[record]]
compound = "CC(C)(C)c1nc2cc(S(=O)(=O)c3cc(S(C)(=O)=O)cnc3O)ccc2n1CC1CCOCC1"
system_name = "human CB2 (hCB2) receptor (Homo sapiens, UniProt P34972)"
measured_parameter = "EC50"
observed_measurement = "1.95 nM"

[[record]]
compound = "COc1cc(S(=O)(=O)c2ccc3c(c2)nc(C(C)(C)C)n3CC2CCOCC2)ccn1"
system_name = "human CB2 (hCB2) receptor (Homo sapiens, UniProt P34972)"
measured_parameter = "EC50"
observed_measurement = "0.55 nM"

[[record]]
compound = "CN(C)CCCOc1cc(S(=O)(=O)c2ccc3c(c2)nc(C(C)(C)C)n3CC2CCOCC2)ccn1"
system_name = "human CB2 (hCB2) receptor (Homo sapiens, UniProt P34972)"
measured_parameter = "EC50"
observed_measurement = "15.5 nM"

[[record]]
compound = "COCCCOc1cc(S(=O)(=O)c2ccc3c(c2)nc(C(C)(C)C)n3CC2CCOCC2)ccn1"
system_name = "human CB2 (hCB2) receptor (Homo sapiens, UniProt P34972)"
measured_parameter = "EC50"
observed_measurement = "0.479 nM"

[[record]]
compound = "CC(C)(C)c1nc2cc(S(=O)(=O)c3cc(C(F)(F)F)ccn3)ccc2n1CC1CCOCC1"
system_name = "human CB2 (hCB2) receptor (Homo sapiens, UniProt P34972)"
measured_parameter = "EC50"
observed_measurement = "1.58 nM"

[[record]]
compound = "CC(C)(C)c1nc2cc([S+]([O-])c3cc[n+]([O-])cc3)ccc2n1CC1CCOCC1 (centres unmarked)"
system_name = "human CB2 (hCB2) receptor (Homo sapiens, UniProt P34972)"
measured_parameter = "EC50"
observed_measurement = "38 nM"

[[record]]
compound = "CC(=O)N1CCC(Cn2c(C(C)(C)C)nc3cc(S(=O)(=O)c4ccc(C#N)s4)ccc32)CC1"
system_name = "human CB2 (hCB2) receptor (Homo sapiens, UniProt P34972)"
measured_parameter = "EC50"
observed_measurement = "2.14 nM"

[[record]]
compound = "Cc1cccc(S(=O)(=O)c2ccc3c(c2)nc(C(C)(C)C)n3CC2CCOCC2)n1"
system_name = "human CB2 (hCB2) receptor (Homo sapiens, UniProt P34972)"
measured_parameter = "EC50"
observed_measurement = "0.813 nM"

[[record]]
compound = "CC(C)(C)c1nc2cc(S(=O)(=O)c3ccnc(OCCCO)c3)ccc2n1CC1CCOCC1"
system_name = "human CB2 (hCB2) receptor (Homo sapiens, UniProt P34972)"
measured_parameter = "EC50"
observed_measurement = "1.17 nM"

[[record]]
compound = "CC(C)(C)c1nc2cc(S(=O)(=O)c3cc(O)ncc3F)ccc2n1CC1CCOCC1"
system_name = "human CB2 (hCB2) receptor (Homo sapiens, UniProt P34972)"
measured_parameter = "EC50"
observed_measurement = "3.89 nM"

[[record]]
compound = "CC(C)(C)c1nc2cc(S(=O)(=O)c3sc(S(=O)(=O)N4CCOCC4)cc3Br)ccc2n1CC1CCOCC1"
system_name = "human CB2 (hCB2) receptor (Homo sapiens, UniProt P34972)"
measured_parameter = "EC50"
observed_measurement = "2.95 nM"

[[record]]
compound = "CC(C)(C)c1nc2cc(S(=O)(=O)c3cc[n+]([O-])cc3Br)ccc2n1CC1CCOCC1"
system_name = "human CB2 (hCB2) receptor (Homo sapiens, UniProt P34972)"
measured_parameter = "EC50"
observed_measurement = "2.14 nM"

[[record]]
compound = "CC(C)(C)c1nc2cc(S(=O)(=O)c3ccc(S(C)(=O)=O)o3)ccc2n1CC1CCOCC1"
system_name = "human CB2 (hCB2) receptor (Homo sapiens, UniProt P34972)"
measured_parameter = "EC50"
observed_measurement = "1.26 nM"

[[record]]
compound = "CC(C)(C)c1nc2cc(S(=O)(=O)c3cc[n+]([O-])cc3)ccc2n1CC1CCOCC1"
system_name = "human CB2 (hCB2) receptor (Homo sapiens, UniProt P34972)"
measured_parameter = "EC50"
observed_measurement = "1.74 nM"

[[record]]
compound = "CC(=O)Nc1ccc(S(=O)(=O)c2ccc3c(c2)nc(C(C)(C)C)n3CC2CCOCC2)nn1"
system_name = "human CB2 (hCB2) receptor (Homo sapiens, UniProt P34972)"
measured_parameter = "EC50"
observed_measurement = "2.51 nM"

[[record]]
compound = "CC(C)(C)c1nc2cc(S(=O)(=O)c3ccnc(O)c3)ccc2n1CC1CCOCC1"
system_name = "human CB2 (hCB2) receptor (Homo sapiens, UniProt P34972)"
measured_parameter = "EC50"
observed_measurement = "3.09 nM"

[[record]]
compound = "CC(C)(C)c1nc2cc(S(=O)(=O)c3ccnc(OCC(F)(F)F)c3)ccc2n1CC1CCOCC1"
system_name = "human CB2 (hCB2) receptor (Homo sapiens, UniProt P34972)"
measured_parameter = "EC50"
observed_measurement = "1.02 nM"

[[record]]
compound = "CC(C)(C)c1nc2cc(S(=O)(=O)c3ccnc(F)c3)ccc2n1CC1CCCCO1 (centres unmarked)"
system_name = "human CB2 (hCB2) receptor (Homo sapiens, UniProt P34972)"
measured_parameter = "EC50"
observed_measurement = "2.63 nM"

[[record]]
compound = "CC(C)(C)c1nc2cc(S(=O)(=O)c3ccnc(N)c3)ccc2n1CC1CCOCC1"
system_name = "human CB2 (hCB2) receptor (Homo sapiens, UniProt P34972)"
measured_parameter = "EC50"
observed_measurement = "1.12 nM"

[[record]]
compound = "CC(C)(C)c1nc2cc(S(=O)(=O)c3ccnc(C#N)c3)ccc2n1CC1CCOCC1"
system_name = "human CB2 (hCB2) receptor (Homo sapiens, UniProt P34972)"
measured_parameter = "EC50"
observed_measurement = "1.58 nM"

[[record]]
compound = "CC(C)(C)c1nc2cc(S(=O)(=O)c3ccc(S(C)(=O)=O)nc3)ccc2n1CC1CCOCC1"
system_name = "human CB2 (hCB2) receptor (Homo sapiens, UniProt P34972)"
measured_parameter = "EC50"
observed_measurement = "2.63 nM"

